Experiment: Inhibition of Tel-fused LYN expressed in mouse BAF3 cells

Chemical Smiles	Units Text	IC50
Cc1ccc(C(=O)Nc2cccc(OC(F)F)c2)cc1Nc1nc2ccccc2n1-c1cc(N)ncn1	nM	100
Cc1ccc(C(=O)Nc2cccc(C(F)(F)F)c2)cc1Nc1nc2ccccc2n1-c1cc(NCCC#N)ncn1	nM	468
Cc1ccc(NC(=O)c2cccc(C(F)(F)F)c2)cc1Nc1nc2ccccc2n1-c1cc(NCCCN2CCN(C)CC2)ncn1	nM	149
Cc1ccc(C(=O)Nc2cccc(C(C)C)c2)cc1Nc1nc2ccccc2n1-c1cc(N)ncn1	nM	15

###

Assay: Inhibition of Tel-fused SRC expressed in mouse BAF3 cells
pIC50: −log10 of the molar value.
Threshold rule: pIC50 greater than or equal to 6 is met; below that, not met.

Chemical Smiles	Answer Label
COCCNc1cc(-n2c(Nc3cc(NC(=O)c4cccc(C(F)(F)F)c4)ccc3C)nc3ccccc32)ncn1	met
COc1cccc(NC(=O)c2ccc(C)c(Nc3nc4ccccc4n3-c3cc(N)ncn3)c2)c1	not met
Cc1ccc(C(=O)Nc2cccc(C(F)(F)F)c2)cc1Nc1nc2ccccc2n1-c1cc(NCCCCN(C)C)ncn1	met
Cc1ccc(NC(=O)c2cc(C3CC3)n[nH]2)cc1Nc1nc2ccccc2n1-c1cc(N)ncn1	met
Cc1ccc(C(=O)Nc2cccc(C(F)(F)F)c2)cc1Nc1nc2ccccc2n1-c1cc(NCCCN2CCN(C)CC2)ncn1	met

###

Assay: Inhibition of Tel-fused KDR expressed in mouse BAF3 cells
# IC50 listing for each entry below

Compound	Units Text	IC50
Cc1ccc(NC(=O)c2cccc(C(F)(F)F)c2)cc1Nc1nc2ccccc2n1-c1cc(NCCCCN(C)C)ncn1	nM	1360
Cc1ccc(NC(=O)c2cccc(C(F)(F)F)c2)cc1Nc1nc2ccccc2n1-c1cc(NCCC2CCCN2)ncn1 (stereo not drawn)	nM	941
Cc1cccc(NC(=O)c2ccc(C)c(Nc3nc4ccccc4n3-c3cc(NCCCCN(C)C)ncn3)c2)c1	nM	1500

###

Experiment: Inhibition of Tel-fused SRC expressed in mouse BAF3 cells
Recorded measurements of IC50, one per entry

Molecule	Result Operator	IC50 [nM]
Cc1ccc(C(=O)Nc2cccc(C(N)=O)c2)cc1Nc1nc2ccccc2n1-c1cc(N)ncn1	>	10000
COc1cc(-n2c(Nc3cc(NC(=O)c4cccc(C(F)(F)F)c4)ccc3C)nc3ccccc32)ncn1	>	10000
Cc1ccc(NC(=O)c2cc(OC3CCN(C)CC3)cc(C(F)(F)F)c2)cc1Nc1nc2ccccc2n1-c1cc(N)ncn1	=	39
CCN(CC)CCNc1cc(-n2c(Nc3cc(NC(=O)c4cccc(C(F)(F)F)c4)ccc3C)nc3ccccc32)ncn1	=	398
Cc1cccc(NC(=O)c2ccc(C)c(Nc3nc4ccccc4n3-c3cc(N)ncn3)c2)c1	=	7170
Cc1ccc(C(=O)Nc2cccc(Br)c2)cc1Nc1nc2ccccc2n1-c1cc(N)ncn1	=	5380
Cc1cccc(NC(=O)c2ccc(C)c(Nc3nc4ccccc4n3-c3cc(NCCN4CCN(C)CC4)ncn3)c2)c1	=	1540
Cc1ccc(NC(=O)c2cccc(C(F)(F)F)c2)cc1Nc1nc2ccccc2n1-c1cc(N)ncn1	=	78
Cc1ccc(NC(=O)c2cc(CN3CCN(C)CC3)n(C(C)(C)C)n2)cc1Nc1nc2ccccc2n1-c1cc(N)ncn1	=	249
Cc1ccc(NC(=O)c2cccc(C(F)(F)F)c2)cc1Nc1nc2ccccc2n1-c1cc(NCCCCN(C)C)ncn1	=	1210
Cc1ccc(C(=O)Nc2cccc(Cl)c2)cc1Nc1nc2ccccc2n1-c1cc(N)ncn1	>	10000
Cc1ccc(C(=O)Nc2cccc(OC(F)F)c2)cc1Nc1nc2ccccc2n1-c1cc(N)ncn1	>	10000
Cc1ccc(C(=O)Nc2cccc3cnccc23)cc1Nc1nc2ccccc2n1-c1cc(N)ncn1	=	7610
Cc1cn(-c2cc(NC(=O)c3ccc(C)c(Nc4nc5ccccc5n4-c4cc(N)ncn4)c3)cc(C(F)(F)F)c2)cn1	=	107
Cc1ccc(NC(=O)c2cc(N3CCN(C)CC3)cc(C(F)(F)F)c2)cc1Nc1nc2ccccc2n1-c1cc(N)ncn1	=	47
Cc1ccc(NC(=O)c2cccc(C(F)(F)F)c2)cc1Nc1nc2ccccc2n1-c1cc(NC2CCN(C)CC2)ncn1	=	1380
Cc1ccc(NC(=O)c2cccc(C(F)(F)F)c2)cc1Nc1nc2ccccc2n1-c1cc(N2CCOCC2)ncn1	>	10000
Cc1ccc(NC(=O)c2cccc(C(F)(F)F)c2)cc1Nc1nc2ccccc2n1-c1cc(NCCCCN)ncn1	=	1660
Cc1ccc(C(=O)Nc2cccc(C(F)(F)F)c2)cc1Nc1nc2ccccc2n1-c1ncnc(N)c1C	>	10000
Cc1ccc(NC(=O)c2cccc(C(F)(F)F)c2)cc1Nc1nc2ccccc2n1-c1cc(NCCC2CCCN2)ncn1 (stereo not drawn)	=	903
Cc1ccc(NC(=O)c2cccc(C(F)(F)F)c2)cc1Nc1nc2ccccc2n1-c1cc(NCCCC2COCCN2)ncn1 (stereo not drawn)	=	600
Cc1ccc(NC(=O)c2cc(C(C)(C)C)nn2C)cc1Nc1nc2ccccc2n1-c1cc(N)ncn1	=	959
Cc1cccc(NC(=O)c2ccc(C)c(Nc3nc4ccccc4n3-c3cc(NCCCCN(C)C)ncn3)c2)c1	=	1270
Cc1ccc(NC(=O)c2cccc(C(F)(F)F)c2)cc1Nc1nc2ccccc2n1-c1cc(NCCc2ccccn2)ncn1	=	524
Cc1ccc(NC(=O)c2cc(Cl)cc(Cl)c2)cc1Nc1nc2ccccc2n1-c1cc(N)ncn1	=	9690
CCN1CCN(c2cc(C(=O)Nc3ccc(C)c(Nc4nc5ccccc5n4-c4cc(N)ncn4)c3)cc(C(F)(F)F)c2)CC1	=	57
Cc1ccc(NC(=O)c2cccc(Cl)c2)cc1Nc1nc2ccccc2n1-c1cc(N)ncn1	=	650
Cc1ccc(NC(=O)c2ccncc2Cl)cc1Nc1nc2ccccc2n1-c1cc(N)ncn1	>	10000

Cited source for all entries: BindingDB's records for doi:10.1016/j.bmcl.2009.09.123
